molecular target: butyryl cholinesterase from equine (Equus caballus); construct: purchased Sigma-Aldrich USA; experiment: Butyrylcholinesterase inhibition (Ellman's assay); format: biochemical; settings: 125 μg/mL; isolated compounds, Table 6; read-out: BChE percent inhibition (mean ± S.E.M)
EXPERIMENTAL READOUT: inhibition at 125 µg/mL (%)
Kindly answer with a numeric value in %, unit omitted.

For orientation, consider the following solved cases.
The reported value for Oc1cccc(O)c1O [Pyrogallol, Benzene-1,2,3-triol] in terms of inhibition at 125 µg/mL is 58.3

The reported value for O=c1c(O)c(-c2ccc(O)cc2O)oc2cc(O)cc(O)c12 [Morin] in terms of inhibition at 125 µg/mL is 51.1

The reported value for COc1ccc2c3c1O[C@H]1C[C@@H](O)C=C[C@@]31CCN(C)C2 [Galanthamine, reference compound] in terms of inhibition at 125 µg/mL is 62.4

More entries:
The reported value for C[C@@H]1O[C@@H](OC[C@H]2O[C@@H](Oc3c(-c4ccc(O)c(O)c4)oc4cc(O)cc(O)c4c3=O)[C@H](O)[C@@H](O)[C@@H]2O)[C@H](O)[C@H](O)[C@H]1O [Rutin] in terms of inhibition at 125 µg/mL is 45

---

Listing: inhibition at 500 µg/mL of selected compounds
target: butyryl cholinesterase from equine (Equus caballus); construct: purchased Sigma-Aldrich USA; assay: Butyrylcholinesterase inhibition (Ellman's assay); assay type: biochemical; conditions: 500 μg/mL; isolated compounds, Table 6; read-out: BChE percent inhibition (mean ± S.E.M)
Kindly answer with a numeric value in %, unit omitted.

For orientation, consider the following solved cases.
The reported value for COc1ccc2c3c1O[C@H]1C[C@@H](O)C=C[C@@]31CCN(C)C2 [Galanthamine, reference compound] in terms of inhibition at 500 µg/mL is 86.5

The reported value for Oc1cccc(O)c1O in terms of inhibition at 500 µg/mL is 80.3

More entries:
The reported value for C[C@@H]1O[C@@H](OC[C@H]2O[C@@H](Oc3c(-c4ccc(O)c(O)c4)oc4cc(O)cc(O)c4c3=O)[C@H](O)[C@@H](O)[C@@H]2O)[C@H](O)[C@H](O)[C@H]1O in terms of inhibition at 500 µg/mL is 62.5

The reported value for O=c1c(O)c(-c2ccc(O)cc2O)oc2cc(O)cc(O)c12 in terms of inhibition at 500 µg/mL is 68.4

---

Listing: inhibition at 1000 µg/mL of selected molecules
biological target: butyryl cholinesterase from equine (Equus caballus, UniProt P81908); construct: purchased Sigma-Aldrich USA; experiment: Butyrylcholinesterase inhibition (Ellman's assay); assay type: biochemical; details: 1000 μg/mL; isolated compounds, Table 6; read-out: BChE percent inhibition (mean ± S.E.M)
Sequence (P81908 whole entry): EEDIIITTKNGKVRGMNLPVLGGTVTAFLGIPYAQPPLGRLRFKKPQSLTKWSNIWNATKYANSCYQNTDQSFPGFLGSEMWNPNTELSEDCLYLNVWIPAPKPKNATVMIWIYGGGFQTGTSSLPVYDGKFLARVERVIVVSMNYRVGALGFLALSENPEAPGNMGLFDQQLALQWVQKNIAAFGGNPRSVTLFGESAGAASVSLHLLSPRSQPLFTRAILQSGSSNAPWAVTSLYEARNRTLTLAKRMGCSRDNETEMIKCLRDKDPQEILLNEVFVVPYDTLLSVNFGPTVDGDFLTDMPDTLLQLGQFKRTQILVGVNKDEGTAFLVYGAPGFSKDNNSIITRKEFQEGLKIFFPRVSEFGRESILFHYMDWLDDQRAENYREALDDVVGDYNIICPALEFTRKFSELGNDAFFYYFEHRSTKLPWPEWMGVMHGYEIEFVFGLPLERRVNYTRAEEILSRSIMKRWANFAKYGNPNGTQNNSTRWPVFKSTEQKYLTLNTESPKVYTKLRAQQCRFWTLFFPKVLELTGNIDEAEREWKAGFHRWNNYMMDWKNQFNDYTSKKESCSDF
Kindly answer with a numeric value in %, unit omitted.

The reported value for C[C@@H]1O[C@@H](OC[C@H]2O[C@@H](Oc3c(-c4ccc(O)c(O)c4)oc4cc(O)cc(O)c4c3=O)[C@H](O)[C@@H](O)[C@@H]2O)[C@H](O)[C@H](O)[C@H]1O [Rutin] in terms of inhibition at 1000 µg/mL is 72

The reported value for Oc1cccc(O)c1O [Pyrogallol, Benzene-1,2,3-triol] in terms of inhibition at 1000 µg/mL is 92

The reported value for COc1ccc2c3c1O[C@H]1C[C@@H](O)C=C[C@@]31CCN(C)C2 [Galanthamine, reference compound] in terms of inhibition at 1000 µg/mL is 92.3

Please find the next molecule below.
The reported value for O=c1c(O)c(-c2ccc(O)cc2O)oc2cc(O)cc(O)c12 [Morin] in terms of inhibition at 1000 µg/mL is 80.5

---

target: butyryl cholinesterase from equine (Equus caballus); construct: purchased Sigma-Aldrich USA; assay: Butyrylcholinesterase inhibition (Ellman's assay); type: biochemical; details: BChE IC50, isolated compounds, Table 6
EXPERIMENTAL READOUT: IC50 (µM)
Kindly answer with a numeric value in µM, unit omitted.

The reported value for C[C@@H]1O[C@@H](OC[C@H]2O[C@@H](Oc3c(-c4ccc(O)c(O)c4)oc4cc(O)cc(O)c4c3=O)[C@H](O)[C@@H](O)[C@@H]2O)[C@H](O)[C@H](O)[C@H]1O [Rutin] in terms of IC50 is 282

---

Listing: inhibition at 250 µg/mL of selected compounds
molecular target: butyryl cholinesterase from equine (Equus caballus, UniProt P81908); construct: purchased Sigma-Aldrich USA; assay: Butyrylcholinesterase inhibition (Ellman's assay); format: biochemical; settings: 250 μg/mL; isolated compounds, Table 6; read-out: BChE percent inhibition (mean ± S.E.M)
Kindly answer with a numeric value in %, unit omitted.

Log: butyryl cholinesterase from equine (Equus caballus, UniProt P81908), compound O=c1c(O)c(-c2ccc(O)cc2O)oc2cc(O)cc(O)c12 [Morin] , inhibition at 250 µg/mL = 60.5

Log: butyryl cholinesterase from equine (Equus caballus, UniProt P81908), compound Oc1cccc(O)c1O [Pyrogallol, Benzene-1,2,3-triol] , inhibition at 250 µg/mL = 71.2

Log: butyryl cholinesterase from equine (Equus caballus, UniProt P81908), compound COc1ccc2c3c1O[C@H]1C[C@@H](O)C=C[C@@]31CCN(C)C2 [Galanthamine, reference compound] , inhibition at 250 µg/mL = 71.8

Please find the next compound below.
Log: butyryl cholinesterase from equine (Equus caballus, UniProt P81908), compound C[C@@H]1O[C@@H](OC[C@H]2O[C@@H](Oc3c(-c4ccc(O)c(O)c4)oc4cc(O)cc(O)c4c3=O)[C@H](O)[C@@H](O)[C@@H]2O)[C@H](O)[C@H](O)[C@H]1O [Rutin] , inhibition at 250 µg/mL = 56.7

---

experiment: ABTS free radical scavenging assay; details: 125 μg/mL; isolated compounds, Table 5
EXPERIMENTAL READOUT: ABTS percent inhibition (mean ± S.E.M)
Write the numeric value and append its unit.

The reported value for Oc1cccc(O)c1O in terms of ABTS percent inhibition (mean ± S.E.M) is 53.26 ± 1.62 %

The reported value for O=c1c(O)c(-c2ccc(O)cc2O)oc2cc(O)cc(O)c12 in terms of ABTS percent inhibition (mean ± S.E.M) is 44.15 ± 0.56 %

The reported value for O=C1O[C@H]([C@@H](O)CO)C(O)=C1O [Ascorbic acid, reference compound] in terms of ABTS percent inhibition (mean ± S.E.M) is 58.90 ± 0.48%

Please find the next compound below.
The reported value for C[C@@H]1O[C@@H](OC[C@H]2O[C@@H](Oc3c(-c4ccc(O)c(O)c4)oc4cc(O)cc(O)c4c3=O)[C@H](O)[C@@H](O)[C@@H]2O)[C@H](O)[C@H](O)[C@H]1O in terms of ABTS percent inhibition (mean ± S.E.M) is 44.30 ± 0.79 %

---

experiment: DPPH free radical scavenging assay; details: 250 μg/mL; isolated compounds, Table 5
EXPERIMENTAL READOUT: DPPH percent inhibition (mean ± S.E.M) (%)
Kindly answer with a numeric value in %, unit omitted.

The reported value for O=c1c(O)c(-c2ccc(O)cc2O)oc2cc(O)cc(O)c12 [Morin] in terms of DPPH percent inhibition (mean ± S.E.M) is 60.25

The reported value for O=C1O[C@H]([C@@H](O)CO)C(O)=C1O [Ascorbic acid, reference compound] in terms of DPPH percent inhibition (mean ± S.E.M) is 71.34

Please find the next molecule below.
The reported value for C[C@@H]1O[C@@H](OC[C@H]2O[C@@H](Oc3c(-c4ccc(O)c(O)c4)oc4cc(O)cc(O)c4c3=O)[C@H](O)[C@@H](O)[C@@H]2O)[C@H](O)[C@H](O)[C@H]1O [Rutin] in terms of DPPH percent inhibition (mean ± S.E.M) is 57.47

The reported numbers originate from paper PMC6833214.
